Field: IC50. System: BDNF/NT-3 growth factors receptor (Homo sapiens, UniProt Q16620). Provenance: assorted publications.
Please use y for IC50 under 5000 nM and n for everything else, ties included.

-- ask Input COc1cc2nccc(Oc3ncc(NC(=O)c4cn(C(C)C)nc(-c5ccc(F)cc5)c4=O)cn3)c2cc1OC ; condition: IC50 strictly below 5000 nM. Does it hold?
-- reply y

-- ask Input Nc1nn2ccc(N3CCC[C@@H]3c3cc(F)ccc3F)nc2c1C(=O)N[C@H]1CC[C@H](O)CC1 ; condition: IC50 strictly below 5000 nM. Does it hold?
-- reply y

-- ask Input COc1cc2ncc(C#N)c(N3CCC(OC(=O)Nc4ccc(OC(C)C)cc4)C3)c2cc1OC (stereo not shown) ; condition: IC50 strictly below 5000 nM. Does it hold?
-- reply n

-- ask Input C(#Cc1n[nH]c2ccc(Cc3ccccc3)cc12)c1ccccn1 ; condition: IC50 strictly below 5000 nM. Does it hold?
-- reply y

-- ask Input COc1cc2ncnc(N3CCC(NC(=O)Nc4ccc(N5CCCCC5)cc4)C3)c2cc1OC (stereo not shown) ; condition: IC50 strictly below 5000 nM. Does it hold?
-- reply n

-- ask Input O=C1CCCN1CCOc1ccc2c(C3CCN(C(=O)Nc4cnc(N5CCCC5)nc4)CC3)ncnc2c1 ; condition: IC50 strictly below 5000 nM. Does it hold?
-- reply y

-- ask Input O=C(Nc1ccc(N2CCCC2)cc1)N1CCC(c2ncnc3cc(OCCN4CCC[C@H]4CO)ccc23)CC1 ; condition: IC50 strictly below 5000 nM. Does it hold?
-- reply n

-- ask Input CS(=O)(=O)CCNc1ccc2c(C3CCN(C(=O)Nc4ccc(N5CCOCC5)cc4)CC3)ncnc2c1 ; condition: IC50 strictly below 5000 nM. Does it hold?
-- reply n

-- ask Input C[C@@H](Nc1ccn2ncc(-c3cnn(C)c3)c2n1)c1cc(F)ccc1OCCF ; condition: IC50 strictly below 5000 nM. Does it hold?
-- reply y

-- ask Input O=C(Nc1cc(F)cc(F)c1)Nc1ccc2[nH]nc(/C=C/c3ccccn3)c2c1 ; condition: IC50 strictly below 5000 nM. Does it hold?
-- reply y

-- ask Input CC(Nc1ccn2ncc(-c3cnn(C4CCCC4O)c3)c2n1)c1cc(F)ccc1OCC(F)F (stereo not shown) ; condition: IC50 strictly below 5000 nM. Does it hold?
-- reply y

-- ask Input COc1cc2ncnc(C3CCN(C(=O)Nc4ccc(N5CCCC5=O)cc4)CC3)c2cc1OC ; condition: IC50 strictly below 5000 nM. Does it hold?
-- reply n

###

Field: pIC50. System: BDNF/NT-3 growth factors receptor (Homo sapiens). Provenance: assorted publications.
Give only the number. pIC50 is defined as minus log10 of concentration in molar units.

-- ask Using BDNF/NT-3 growth factors receptor (Homo sapiens) as the test system, report measured pIC50 of COc1cc2ncnc(C3CCN(C(=O)Nc4ccc(C(C)O)cc4)CC3)c2cc1OC (stereo not shown) .
-- reply 4.41

-- ask Using BDNF/NT-3 growth factors receptor (Homo sapiens) as the test system, report measured pIC50 of C[C@@H](Nc1ccn2ncc(-c3cnn(C)c3)c2n1)c1cc(F)ccc1OCC(F)(F)F .
-- reply 8.52

-- ask Using BDNF/NT-3 growth factors receptor (Homo sapiens) as the test system, report measured pIC50 of CC(C)c1ccc(NC(=O)NC2CCN(c3ncnc4ccccc34)C2)cc1 (stereo not shown) .
-- reply 5.62

-- ask Using BDNF/NT-3 growth factors receptor (Homo sapiens) as the test system, report measured pIC50 of CO/N=C/c1c(N)ncnc1N1CCN(C(=O)Nc2ccc(C3CCCCC3)cc2)CC1 .
-- reply 5.77

-- ask Using BDNF/NT-3 growth factors receptor (Homo sapiens) as the test system, report measured pIC50 of COc1cc2nccc(Oc3ncc(NC(=O)c4nn(C(C)C)cc(-c5ccc(F)cc5)c4=O)cn3)c2cc1OC .
-- reply 8.52

###

Field: IC50. System: BDNF/NT-3 growth factors receptor (Homo sapiens, UniProt Q16620). Provenance: assorted publications.
Lab note: write values as number then unit, every time.

-- ask Kindly indicate its recorded IC50. Item: COc1cc2ncnc(C3CCN(C(=O)Nc4ccc(-c5ccc(Cl)nc5)cc4)CC3)c2cc1OC
-- reply 8.1 µM

-- ask Kindly indicate its recorded IC50. Item: O=S(=O)(Nc1ccc2[nH]nc(/C=C/c3ccccn3)c2c1)c1cc(F)cc(F)c1
-- reply 0.0032 µM

-- ask Kindly indicate its recorded IC50. Item: C[C@@H]1c2cc(F)ccc2OCCOC(=O)c2cnn3ccc(nc23)N1C
-- reply 0.00048 µM

-- ask Kindly indicate its recorded IC50. Item: CC(C)Oc1ccc(NC(=O)N2CCC(c3ncnc4ccccc34)CC2)cc1
-- reply 2.4 µM

###

Field: pIC50. System: BDNF/NT-3 growth factors receptor (Homo sapiens, UniProt Q16620). Provenance: assorted publications.
Give only the number. pIC50 is defined as minus log10 of concentration in molar units.

-- ask Kindly indicate its recorded pIC50. Item: CC(C)Oc1ccc(NC(=O)N2CCC(c3ncnc4ccc(C#CCO)cc34)CC2)cc1
-- reply 6.30

-- ask Kindly indicate its recorded pIC50. Item: COc1cc2nccc(Oc3cnc(NC(=O)c4nn(C5CC5)cc(-c5ccc(F)cc5)c4=O)nc3)c2cc1OC
-- reply 8.10

-- ask Kindly indicate its recorded pIC50. Item: COc1cc2ncnc(N3CCC(OC(=O)Nc4ccc(C(C)C)cc4)CC3)c2cc1OC
-- reply 5.24

-- ask Kindly indicate its recorded pIC50. Item: CC(C)Oc1ccc(NC(=O)N2CCC(c3ncnc4ccc(I)cc34)CC2)cc1
-- reply 6.70

-- ask Kindly indicate its recorded pIC50. Item: CC(C)Oc1ccc(NC(=O)N2CCC(c3ncnc4cc(OCCCN5CCCCC5)ccc34)CC2)cc1
-- reply 6.05

###

pIC50: −log10 of the molar value.
Field: pIC50. System: BDNF/NT-3 growth factors receptor (Homo sapiens, UniProt Q16620). Provenance: assorted publications.
Decision: pIC50 >= 6 yields t, all other cases yield f.

-- ask Is reported pIC50 greater than or equal to 6 here: COc1cc2ncnc(C3CCN(C(=O)Nc4ccc(C5=CCNCC5)cc4)CC3)c2cc1OC
-- reply f

-- ask Is reported pIC50 greater than or equal to 6 here: CS(=O)(=O)N1CCN(c2ccc3c(C4CCN(C(=O)Nc5ccc(N6CCOCC6)cc5)CC4)ncnc3c2)CC1
-- reply f

-- ask Is reported pIC50 greater than or equal to 6 here: O=C(Nc1ccc(N2CCOCC2)cc1)N1CCC(c2ncnc3cc(N4CC[C@@H](O)C4)ccc23)CC1
-- reply f

-- ask Is reported pIC50 greater than or equal to 6 here: COc1ccc2c(C3CCN(C(=O)Nc4ccc(OC(C)C)cc4)CC3)ncnc2c1
-- reply t

-- ask Is reported pIC50 greater than or equal to 6 here: COc1cc2ncnc(N3CCC(CC(=O)Nc4ccc(C(C)C)cc4)CC3)c2cc1OC
-- reply f

-- ask Is reported pIC50 greater than or equal to 6 here: CNC(=O)c1c(N)nn2ccc(N3C[C@@H](F)C[C@@H]3c3cc(F)ccc3F)nc12
-- reply t

###

Field: pIC50. System: BDNF/NT-3 growth factors receptor (Homo sapiens). Provenance: assorted publications.
Give only the number. pIC50 is defined as minus log10 of concentration in molar units.

-- ask Using BDNF/NT-3 growth factors receptor (Homo sapiens) as the test system, report measured pIC50 of COc1cncnc1N1CCN(c2cc(-c3cc(OC4CCOCC4)c4c(N)n[nH]c4c3)ccc2C(N)=O)CC1 .
-- reply 7.82

-- ask Using BDNF/NT-3 growth factors receptor (Homo sapiens) as the test system, report measured pIC50 of COc1ccc(NC(=O)N2CCC(c3ncnc4cc(OC)c(OC)cc34)CC2)cc1 .
-- reply 4.93

-- ask Using BDNF/NT-3 growth factors receptor (Homo sapiens) as the test system, report measured pIC50 of Fc1ccc(F)c(Cc2ccc3[nH]nc(C#Cc4ccccn4)c3c2)c1 .
-- reply 7.40

###

Field: log10 of IC50. System: BDNF/NT-3 growth factors receptor (Homo sapiens, UniProt Q16620). Provenance: assorted publications.
Answers are given as log10 of IC50 in nM.

-- ask Kindly indicate its recorded log10 of IC50. Item: CO/N=C/c1c(N)ncnc1N1CCC(NC(=O)Nc2ccc(OC3CCC3)nc2)C1 (centres unmarked)
-- reply 3.62

-- ask Kindly indicate its recorded log10 of IC50. Item: COc1cc2ncnc(N3CCC(NC(=O)Nc4ccc(OC5CCCC5)cc4)C3)c2cc1OC (centres unmarked)
-- reply 3.61

-- ask Kindly indicate its recorded log10 of IC50. Item: NC(=O)c1ccc(-c2cc(OC3CCOCC3)c3c(N)n[nH]c3c2)cc1N1CCN(c2ccccc2)CC1
-- reply -0.10

-- ask Kindly indicate its recorded log10 of IC50. Item: CN1CCN(CCCOc2ccc3c(C4CCN(C(=O)Nc5ccc(N6CCCC6)cc5)CC4)ncnc3c2)CC1
-- reply 3.70

-- ask Kindly indicate its recorded log10 of IC50. Item: O=S(=O)(c1cc(F)cc(F)c1)c1ccc2[nH]nc(C#Cc3ccccn3)c2c1
-- reply 1.63

-- ask Kindly indicate its recorded log10 of IC50. Item: COc1cc2ncnc(C3CCN(C(=O)NC4CCC(C(C)(C)C)CC4)CC3)c2cc1OC (centres unmarked)
-- reply 3.79

-- ask Kindly indicate its recorded log10 of IC50. Item: O=C1CCCN1CCOc1ccc2c(C3CCN(C(=O)Nc4ccc(N5CCOCC5)nc4)CC3)ncnc2c1
-- reply 3.93

-- ask Kindly indicate its recorded log10 of IC50. Item: CC(C)c1ccc(NC(=O)OC2CCN(c3ccnc4ccccc34)C2)cc1 (centres unmarked)
-- reply 3.88

-- ask Kindly indicate its recorded log10 of IC50. Item: CC(C)(C)OC(=O)N1CCN(c2cc(-c3cc(OC4CCCC4)c4c(N)n[nH]c4c3)ccc2C(N)=O)CC1
-- reply 0.50

-- ask Kindly indicate its recorded log10 of IC50. Item: CC(=O)N1CCC(COc2ccc3c(C4CCN(C(=O)Nc5ccc(N6CCCC6)cc5)CC4)ncnc3c2)CC1
-- reply 3.61

-- ask Kindly indicate its recorded log10 of IC50. Item: CC(C)c1ccc(NC(=O)OC2CCN(c3ccnc4ccccc34)CC2)cc1
-- reply 3.81

-- ask Kindly indicate its recorded log10 of IC50. Item: Fc1cc(F)cc(Sc2ccc3[nH]nc(C#Cc4ccccn4)c3c2)c1
-- reply 2.38

-- ask Kindly indicate its recorded log10 of IC50. Item: CC(Nc1ccn2ncc(-c3cn[nH]c3)c2n1)c1cc(F)ccc1OC1CCCC1 (centres unmarked)
-- reply 0.77

-- ask Kindly indicate its recorded log10 of IC50. Item: Fc1ccc(F)c(Cc2ccc3[nH]nc(/C=C/c4ccccn4)c3c2)c1
-- reply 1.09

-- ask Kindly indicate its recorded log10 of IC50. Item: Fc1cc(F)cc(CNc2ccc3[nH]nc(/C=C/c4ccccn4)c3c2)c1
-- reply 1.00

-- ask Kindly indicate its recorded log10 of IC50. Item: Fc1cc(F)cc(Cc2ccc3[nH]nc(/C=C/c4cccs4)c3c2)c1
-- reply 1.51

-- ask Kindly indicate its recorded log10 of IC50. Item: COc1cc2ncnc(N3CCC(NC(=O)Nc4ccc(OC(C)C)cc4)C3)c2cc1OC (centres unmarked)
-- reply 3.56

-- ask Kindly indicate its recorded log10 of IC50. Item: COc1cc2ncnc(N3CCCC(COC(=O)Nc4ccc(C(C)C)cc4)C3)c2cc1OC (centres unmarked)
-- reply 3.92

-- ask Kindly indicate its recorded log10 of IC50. Item: CC(C)Oc1ccc(NC(=O)N2CCC(c3ncnc4ccc(C#CCN5CCOCC5)cc34)CC2)cc1
-- reply 2.90

-- ask Kindly indicate its recorded log10 of IC50. Item: COc1cc2ncnc(N3CCC(OC(=O)Nc4ccc(OC(C)C)cc4)C3)c2cc1OC (centres unmarked)
-- reply 4.10

-- ask Kindly indicate its recorded log10 of IC50. Item: COc1cc2ncnc(N3CCC(NC(=O)Nc4ccc(Cl)cc4)C3)c2cc1OC (centres unmarked)
-- reply 4.20

-- ask Kindly indicate its recorded log10 of IC50. Item: C[C@@H](Nc1ccn2ncc(-c3cnn(CC#N)c3)c2n1)c1cc(F)ccc1OCC(F)F
-- reply 0.11

-- ask Kindly indicate its recorded log10 of IC50. Item: CCO/N=C/c1c(N)ncnc1N1CCN(C(=O)Nc2ccc(OC3CCC3)nc2)CC1
-- reply 3.20
